Quick reference for melting point among some compounds

Kindly note the recorded melting point for `CCCC(=O)c1cc2c(=O)n(NS(C)(=O)=O)c(=O)[nH]c2cc1C(F)(F)F` , which is 236 to 239 °C

Documented melting point of CCCCOC(C)c1cc2c(=O)n(NS(C)(=O)=O)c(=O)[nH]c2cc1C(F)(F)F (centres unmarked) : 84 to 90 °C

Looking up CS(=O)(=O)Nn1c(=O)[nH]c2cc(C(F)(F)F)c(C3CCCO3)cc2c1=O (centres unmarked) , I see its melting point listed as 254 to 257 °C

# compound CC(O)c1cccc(-c2cc3c(=O)n(NS(C)(=O)=O)c(=O)[nH]c3cc2C(F)(F)F)c1 (centres unmarked) ; its melting point = 165 to 169 °C

Item: `CS(=O)(=O)Nn1c(=O)[nH]c2cc(C(F)(F)F)c(-c3ccc(C#N)cc3)cc2c1=O` | melting point: 145 to 147 °C
